Origin of values: PubChem BioAssay AID1963830

Tested on: 922993-354-T-J3-PDC complex spheroid viability;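 note: spheroids exposed to the agents for one week; 100% = DMSO vehicle control wells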
assay_explanation: Anticancer human tumor 922993-354-T-J3-PDC patient-derived endometrial carcinoma cell line growth inhibition [POLQ]
assay_context: second compound 0.316 µM; first compound 0.1 µM; hits give low values

{"columns": ["molecule", "viability, T/C"],
 "data": [
  ["O=c1[nH]cc(F)c(=O)[nH]1 + Cc1cccc(N(C)C(=O)C2C(O)CCN2c2nc(C)cc(C(F)(F)F)c2C#N)c1", "96.1%"],
  ["CC1COCCN1c1cc(C2(O)CC3CCC(C2)O3)c2cnn(-c3ccn[nH]3)c2n1 (configuration not stated) + Cc1cccc(N(C)C(=O)C2C(O)CCN2c2nc(C)cc(C(F)(F)F)c2C#N)c1", "101%"],
  ["Nc1ccn(C2OC(CO)C(O)C2(F)F)c(=O)n1 (configuration not stated) + Cc1cccc(N(C)C(=O)C2C(O)CCN2c2nc(C)cc(C(F)(F)F)c2C#N)c1", "11.5%"],
  ["CCc1cc2c(N3CCc4c(cc(Cn5ccnc5)cc4-c4cn(C)nc4C(F)(F)F)C3=O)ccnc2c(OC)n1 + COC1C(OC(N)=O)C(O)C(Oc2ccc3c(O)c(NC(=O)c4ccc(O)c(CC=C(C)C)c4)c(=O)oc3c2C)OC1(C)C", "101%"],
  ["CNCc1ccc(-c2[nH]c3cc(F)cc4c3c2CCNC4=O)cc1 + Cc1cccc(N(C)C(=O)C2C(O)CCN2c2nc(C)cc(C(F)(F)F)c2C#N)c1", "105%"],
  ["O=c1[nH]cc(F)c(=O)[nH]1 + Nc1ccc(C#CCN(C(=O)Cc2ncc(C(F)(F)F)cc2C(F)(F)F)c2ccc(F)cc2)nn1", "104%"],
  ["CC1COCCN1c1cc(C2(S(C)(=N)=O)CC2)nc(-c2ccnc3[nH]ccc23)n1 (configuration not stated) + Nc1ccc(C#CCN(C(=O)Cc2ncc(C(F)(F)F)cc2C(F)(F)F)c2ccc(F)cc2)nn1", "101%"]
]}
